These data points were gathered from patent US20100003246A1.

Target Entity: b-Raf(V600E) (Homo sapiens, UniProt P15056, V600E)
Construct: made in house
Sequence (P15056 whole entry V600E): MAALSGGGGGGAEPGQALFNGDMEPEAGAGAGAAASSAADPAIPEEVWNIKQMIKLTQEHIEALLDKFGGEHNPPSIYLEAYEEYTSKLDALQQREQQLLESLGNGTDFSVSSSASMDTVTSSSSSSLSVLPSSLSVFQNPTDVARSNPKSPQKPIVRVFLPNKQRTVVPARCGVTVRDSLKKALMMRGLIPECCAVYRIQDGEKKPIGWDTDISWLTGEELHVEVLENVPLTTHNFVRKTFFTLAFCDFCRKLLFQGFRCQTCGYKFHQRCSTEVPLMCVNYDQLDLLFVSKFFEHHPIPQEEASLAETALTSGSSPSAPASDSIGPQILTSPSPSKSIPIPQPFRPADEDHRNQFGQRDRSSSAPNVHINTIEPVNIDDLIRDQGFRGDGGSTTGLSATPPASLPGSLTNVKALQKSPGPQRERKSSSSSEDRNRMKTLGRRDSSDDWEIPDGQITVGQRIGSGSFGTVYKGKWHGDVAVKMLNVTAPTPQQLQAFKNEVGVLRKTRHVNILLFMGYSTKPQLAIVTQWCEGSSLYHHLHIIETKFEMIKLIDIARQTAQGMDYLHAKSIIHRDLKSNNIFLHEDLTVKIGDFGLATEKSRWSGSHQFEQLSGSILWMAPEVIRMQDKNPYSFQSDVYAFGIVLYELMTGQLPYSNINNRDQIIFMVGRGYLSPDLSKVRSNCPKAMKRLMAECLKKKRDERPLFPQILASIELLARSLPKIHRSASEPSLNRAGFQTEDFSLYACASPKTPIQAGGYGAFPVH
Assay Text: Raf/Mek Amplified Luminescence Proximity Homogeneous Assay (Alpha Screen), b-Raf(V600E)
Assay type: biochemical
Experimental Conditions: mutant b-Raf(V600E), read-out: mut-b-RAF (IC50 in uM)
Value Kind: IC50 (µM)

Sample records with IC50:
INSERT INTO measurements (compound_string, endpoint_value) VALUES
  ('COc1cc(-c2nc(C3=CCNCC3)[nH]c2-c2ccncc2)cnc1N', 0.0162),
  ('COc1nc(-c2[nH]c(-c3ccccc3)nc2-c2ccncc2)cnc1N', 0.006),
  ('COc1cc(-c2nc(-c3ccc(F)cc3)[nH]c2-c2ccnc(NC[C@H](C)NS(C)(=O)=O)n2)cnc1N', 0.0001);

a: COc1cc(-c2[nH]c(-c3ccccc3)nc2-c2ccnc(N[C@@H]3CCCN(S(=O)(=O)c4ccc(Cl)cc4)C3)n2)cnc1N
b: COc1cc(-c2[nH]c(-c3ccc(C#N)cc3)nc2-c2ccncc2)cnc1N
c: COCC(=O)NCCNc1nccc(-c2nc(-c3ccc(F)cc3)[nH]c2-c2cnc3[nH]cc(Br)c3c2)n1
d: COCC(=O)N[C@@H](C)CNc1nccc(-c2[nH]c(-c3ccc(F)cc3)nc2-c2nc(OC)c(N)nc2C)n1
Could you please order the items by IC50, going from the lowest number to the highest? Please list the labels according to the requested order. c, a, b, d

###

Target Entity: b-Raf(V600E) (Homo sapiens, UniProt P15056, V600E)
Construct: made in house
Assay Text: Raf/Mek Amplified Luminescence Proximity Homogeneous Assay (Alpha Screen), b-Raf(V600E)
Format: biochemical
Experimental Conditions: mutant b-Raf(V600E), read-out: mut-b-RAF (IC50 in uM)
Protocol: Assay buffer: 50 mM Tris, pH 7.5, 15 mM MgCl2, 0.01% BSA, 1 mM DTT Stop buffer: 60 mM EDTA, 0.01% Tween20 Bead buffer: 50 mM Tris, pH 7.5, 0.01% Tween20 […] The Raf kinase activity reaction was started by the addition of 10 μl per well of 2×ATP diluted in assay buffer. […] A lid was placed on top of the plate and incubated for 1 hour at room temperature, then the luminescence was read on a PerkinElmer Envision instrument. […]
Value Kind: IC50 (nM)

Sample records with IC50:
INSERT INTO results (molecule, target_entity, unit_symbol, endpoint_value) VALUES
  ('Nc1ncc(-c2[nH]c(-c3ccccc3)nc2-c2ccncc2)cc1O [Compound 143]', 'b-Raf(V600E) (Homo sapiens, UniProt P15056, V600E)', 'nM', 215),
  ('c1ccc(-c2nc(-c3ccncc3)c(-c3cnc4c(c3)CCN4)[nH]2)cc1 [Compound 52]', 'b-Raf(V600E) (Homo sapiens, UniProt P15056, V600E)', 'nM', 12.3);

I: COc1cc(-c2[nH]c(-c3cccc(C)c3)nc2-c2ccncc2)cnc1N [Compound 110]
II: COC(=O)N[C@@H](C)CNc1nccc(-c2[nH]c(C(C)(C)C)nc2-c2cnc(N)c(OC(F)F)c2)n1 [Compound 265]
Pick one, I or II : lowest reported IC50. Record your answer as the label of the chosen record. II
(II: 0.01 nM, I: 0.5 nM)

P: CNC(=O)N[C@@H](C)CNc1nccc(-c2[nH]c(C(C)(C)C)nc2-c2cnc(N)c(OC)c2)n1 [Compound 219]
Q: Nc1ncc(-c2[nH]c(-c3ccccc3)nc2-c2ccncc2)cc1Cl [Compound 46]
R: COc1cc(-c2nc(-c3ccc(C(F)(F)F)cc3)oc2-c2ccnc(NCC(C)C)c2)cnc1N [Compound 232]
Hello, I need these entries ordered by IC50, highest reading first. Thanks! Please list the labels according to the requested order. Q, R, P

###

Target Entity: b-Raf(V600E) (Homo sapiens, UniProt P15056, V600E)
Construct: made in house
Assay Text: Raf/Mek Amplified Luminescence Proximity Homogeneous Assay (Alpha Screen), b-Raf(V600E)
Assay type: biochemical
Experimental Conditions: mutant b-Raf(V600E), read-out: mut-b-RAF (IC50 in uM)
Method: Assay buffer: 50 mM Tris, pH 7.5, 15 mM MgCl2, 0.01% BSA, 1 mM DTT Stop buffer: 60 mM EDTA, 0.01% Tween20 Bead buffer: 50 mM Tris, pH 7.5, 0.01% Tween20 […] The Raf kinase activity reaction was started by the addition of 10 μl per well of 2×ATP diluted in assay buffer. […] A lid was placed on top of the plate and incubated for 1 hour at room temperature, then the luminescence was read on a PerkinElmer Envision instrument. […]
Value Kind: IC50 (µM)

Sample records with IC50:
INSERT INTO assay_data (compound_string, endpoint_value) VALUES
  ('COCC(=O)N[C@@H](C)CNc1nccc(-c2[nH]c(-c3ccc(C(F)(F)F)cc3)nc2-c2cnc(N)c(OC)n2)n1', 0.0001),
  ('COc1ncc(-c2[nH]c(-c3ccccc3)nc2-c2ccncc2)cc1N', 0.349),
  ('COc1cc(-c2[nH]c(C)nc2-c2ccncc2)cnc1N', 0.0196),
  ('COc1cc(-c2nc(C(C)(C)C)[nH]c2-c2ccnc(Nc3ccc(Cl)c(C(F)(F)F)c3)n2)cnc1N', 0.0002),
  ('c1ccc(-c2nc(-c3ccncc3)c(-c3cnc4c(n3)CCN4)[nH]2)cc1', 0.68);

1: CCCNc1nccc(-c2nc(-c3ccc(F)cc3)[nH]c2-c2cnc(N)c(OC)c2)n1
2: c1ccc(-c2nc(-c3ccncc3)c(-c3ccsc3)[nH]2)cc1
3: COC(=O)N[C@@H](C)CNc1nccc(-c2nc(C(C)(C)C)[nH]c2-c2ccc3[nH]ccc3c2)n1
Hello, I need these entries ordered by IC50, highest reading first. Thanks! Please list the labels according to the requested order. 2, 3, 1

###

Target Entity: b-Raf(V600E) (Homo sapiens, UniProt P15056, V600E)
Construct: made in house
Assay Text: Raf/Mek Amplified Luminescence Proximity Homogeneous Assay (Alpha Screen), b-Raf(V600E)
Assay type: biochemical
Experimental Conditions: mutant b-Raf(V600E), read-out: mut-b-RAF (IC50 in uM)
Value Kind: IC50 (µM)

Sample records with IC50:
INSERT INTO results (compound_string, target_entity, endpoint_value) VALUES
  ('Nc1ccc(-c2[nH]c(-c3ccccc3)nc2-c2ccncc2)cn1', 'b-Raf(V600E) (Homo sapiens, UniProt P15056, V600E)', 0.26),
  ('COC(=O)N[C@@H](C)CNc1nccc(-c2nc(C(C)(C)C)[nH]c2-c2cnc3[nH]cc(C(F)(F)F)c3c2)n1', 'b-Raf(V600E) (Homo sapiens, UniProt P15056, V600E)', 0.065),
  ('COCC(=O)N[C@@H](C)CNc1nccc(-c2[nH]c(C3CC3)nc2-c2nc(OC)c(N)nc2C)n1', 'b-Raf(V600E) (Homo sapiens, UniProt P15056, V600E)', 0.0039),
  ('COCC(=O)NCCNc1nccc(-c2nc(-c3ccc(F)cc3)[nH]c2-c2cc(C)c3ncnn3c2)n1', 'b-Raf(V600E) (Homo sapiens, UniProt P15056, V600E)', 0.025);

P: COc1cc(-c2nc(-c3ccc(F)cc3)[nH]c2-c2ccnc(NCC(C)C)n2)cnc1N
Q: COC(=O)N[C@@H](C)CNc1nccc(-c2nc(C(C)(C)C)[nH]c2-c2cnc3[nH]ccc3c2)n1
Out of P and Q , name the one with the higher IC50. Record your answer as the label of the chosen record. P

###

Target Entity: b-Raf(V600E) (Homo sapiens, UniProt P15056, V600E)
Construct: made in house
Assay Text: Raf/Mek Amplified Luminescence Proximity Homogeneous Assay (Alpha Screen), b-Raf(V600E)
Assay type: biochemical
Experimental Conditions: mutant b-Raf(V600E), read-out: mut-b-RAF (IC50 in uM)
Value Kind: IC50 (µM)

Sample records with IC50:
INSERT INTO results (compound_string, target_entity, value_kind, endpoint_value) VALUES
  ('COc1cc(-c2nc(C(C)(C)C)[nH]c2-c2ccnc(Nc3ccc(N4C[C@@H](C)O[C@@H](C)C4)nc3)n2)cnc1N', 'b-Raf(V600E) (Homo sapiens, UniProt P15056, V600E)', 'IC50', 0.0003),
  ('COCC(=O)N[C@@H](C)CNc1nccc(-c2[nH]c(-c3ccc(F)cc3)nc2-c2cnc(N)c(OC)n2)n1', 'b-Raf(V600E) (Homo sapiens, UniProt P15056, V600E)', 'IC50', 0.0002),
  ('COc1cc(-c2nc(C3=CCCC3)[nH]c2-c2ccncc2)cnc1N', 'b-Raf(V600E) (Homo sapiens, UniProt P15056, V600E)', 'IC50', 0.0018),
  ('c1ccc(-c2nc(-c3ccncc3)c(-c3cnc4[nH]ncc4c3)[nH]2)cc1', 'b-Raf(V600E) (Homo sapiens, UniProt P15056, V600E)', 'IC50', 0.0222),
  ('COc1cc(-c2nc(-c3ccc(F)cc3)[nH]c2-c2ccncc2)cnc1N', 'b-Raf(V600E) (Homo sapiens, UniProt P15056, V600E)', 'IC50', 0.0006),
  ('COc1cc(-c2[nH]c(-c3ccc4[nH]ccc4c3)nc2-c2ccncc2)cnc1N', 'b-Raf(V600E) (Homo sapiens, UniProt P15056, V600E)', 'IC50', 0.0009),
  ('Cc1c[nH]c2ncc(-c3[nH]c(-c4ccc(F)cc4)nc3-c3ccncc3)cc12', 'b-Raf(V600E) (Homo sapiens, UniProt P15056, V600E)', 'IC50', 0.0002),
  ('COc1cc(-c2[nH]c(-c3ccccc3)nc2-c2ccnc(NCCNS(=O)(=O)c3ccc(Cl)cc3)n2)cnc1N', 'b-Raf(V600E) (Homo sapiens, UniProt P15056, V600E)', 'IC50', 0.0004),
  ('COc1cc(-c2nc(-c3ccccc3)[nH]c2-c2ccnc(NC[C@@H](C)O)n2)cnc1N', 'b-Raf(V600E) (Homo sapiens, UniProt P15056, V600E)', 'IC50', 0.0011),
  ('COc1nc(-c2[nH]c(C)nc2-c2ccncc2)cnc1N', 'b-Raf(V600E) (Homo sapiens, UniProt P15056, V600E)', 'IC50', 0.259);

1: COc1ccc(CNc2nccc(-c3[nH]c(C(C)(C)C)nc3-c3cnc(N)c(OC)c3)n2)cc1
2: CNc1ncc(-c2nc(-c3ccccc3)[nH]c2-c2ccncc2)cn1
Out of 1 and 2 , name the one with the higher IC50. Record your answer as the label of the chosen record. 2
